# TARGET_ENTITY: T1, recombinant human IL-23 (human, UniProt Q9NPF7 20-189; P29460 23-328)
# T1 construct: Heterodimer of p19 and p40; also called hIL-23; interleukin-23; not shown: single C-terminal 6xHis tag
# T1 sequence 1: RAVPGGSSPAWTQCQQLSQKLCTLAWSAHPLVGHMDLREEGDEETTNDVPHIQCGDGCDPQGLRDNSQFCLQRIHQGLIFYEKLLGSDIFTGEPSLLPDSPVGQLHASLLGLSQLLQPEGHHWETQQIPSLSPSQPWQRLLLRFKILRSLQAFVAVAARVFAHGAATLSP
# T1 sequence 2: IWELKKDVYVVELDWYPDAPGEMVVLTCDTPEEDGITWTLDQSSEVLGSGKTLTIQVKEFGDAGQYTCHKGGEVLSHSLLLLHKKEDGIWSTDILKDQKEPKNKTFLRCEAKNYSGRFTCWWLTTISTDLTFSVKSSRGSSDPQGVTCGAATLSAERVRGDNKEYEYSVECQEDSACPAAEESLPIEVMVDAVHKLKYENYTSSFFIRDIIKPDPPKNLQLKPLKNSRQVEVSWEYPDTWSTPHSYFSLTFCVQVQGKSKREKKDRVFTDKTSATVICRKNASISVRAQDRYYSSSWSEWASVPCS
# RUN_DESCRIPTION: IL-23-IL-23R neutralisation ELISA
EXPERIMENTAL_ENDPOINT: pEC50
A value of pEC50 is the negative decimal logarithm of a concentration given in moles per litre.

Fill in: pEC50 of ID-L241T (VHH, Relative to ID-L253T: D1E, S19R, D58H, V92R) VHH: EVQLVESGGGQVQPGGSLRLSCESSVSIWSFKVMGWFRQVPGKQRELVATITTGGSPHYSDSVKGRFTISRDYDKRTLYLQMNSLKPEDTARYYCAGRLWAHITSSGHDVWGQGTQVTVSS is ___
9.51
